Source of measurements: ChEMBL document CHEMBL1124218

- tgt: UniProt P07607
- assay_text: Inhibitory activity against thymidylate synthase isolated from L1210 leukemia cells
- run_conditions: read-out: I50
pIC50: −log10 of the molar value.
endpoint: pIC50

Examples with their reported pIC50 follow.
compound | pIC50
Nc1nc(N)c2cc(CNc3ccc(C(=O)NC(CCC(=O)O)C(=O)O)cc3)ccc2n1 (stereo not drawn) | 5.30
C=CCN(Cc1ccc(C(=O)NC(CCC(=O)O)C(=O)O)cc1)c1ccc2nc(N)nc(O)c2c1 (stereo not drawn) | 5.21

[a] CN(Cc1ccc(C(=O)NC(CCC(=O)O)C(=O)O)cc1)c1ccc2nc(N)nc(O)c2c1 (stereo not drawn)
[b] Cc1c(N(C)Cc2ccc(C(=O)NC(CCC(=O)O)C(=O)O)cc2)ccc2nc(N)nc(O)c12 (stereo not drawn)
Looking only at measured pIC50, which entry is lower, a or b ? Your answer should be the label attached to the chosen record.
b
(b: 6.15, a: 6.70)

[A] Nc1nc(=O)c2cc(NCc3ccc(C(=O)NC(CCC(=O)O)C(=O)O)cc3)ccc2[nH]1 (stereo not drawn)
[B] Nc1nc(O)c2cc(CN(C=O)c3ccc(C(=O)NC(CCC(=O)O)C(=O)O)cc3)ccc2n1 (stereo not drawn)
Looking only at measured pIC50, which entry is lower, A or B ? Your answer should be the label attached to the chosen record.
B
(B: 5.01, A: 5.89)

[A] Nc1nc(O)c2cc(CSc3ccc(C(=O)NC(CCC(=O)O)C(=O)O)cc3)ccc2n1 (stereo not drawn)
[B] Nc1nc(N)c2cc(NCc3ccc(C(=O)NC(CCC(=O)O)C(=O)O)cc3)ccc2n1 (stereo not drawn)
Looking only at measured pIC50, which entry is lower, A or B ? Your answer should be the label attached to the chosen record.
B

----------
- tgt: Thymidylate synthase (Mus musculus)
- Sequence (P07607 whole entry): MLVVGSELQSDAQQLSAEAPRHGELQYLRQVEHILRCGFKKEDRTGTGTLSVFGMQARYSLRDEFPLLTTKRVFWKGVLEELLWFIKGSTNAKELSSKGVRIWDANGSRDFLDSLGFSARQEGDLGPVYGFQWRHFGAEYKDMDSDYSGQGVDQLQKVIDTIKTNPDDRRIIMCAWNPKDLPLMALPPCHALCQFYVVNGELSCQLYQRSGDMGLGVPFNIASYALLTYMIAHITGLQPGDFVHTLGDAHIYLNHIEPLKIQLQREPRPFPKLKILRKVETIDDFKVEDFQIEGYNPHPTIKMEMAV
- assay_text: Inhibitory activity against thymidylate synthase isolated from L1210 leukemia cells
- run_conditions: read-out: I50
endpoint: IC50 (nM)

molecule | tgt | IC50, nM
Nc1nc(N)c2c(Cl)c(NCc3ccc(C(=O)NC(CCC(=O)O)C(=O)O)cc3)ccc2n1 (stereo not given) | Thymidylate synthase (Mus musculus) | 98

[1] Cc1c(NCc2ccc(C(=O)NC(CCC(=O)O)C(=O)O)cc2)ccc2nc(N)nc(N)c12 (stereo not given)
[2] Cc1c(NCc2ccc(C(=O)NC(CCC(=O)O)C(=O)O)cc2)ccc2nc(N)nc(O)c12 (stereo not given)
Which numeric IC50 is bigger, that of 1 or that of 2 ? Your answer should be the label attached to the chosen record.
2
